Reference for the values: PubChem BioAssay (NCI)

Test system: DU-145 prostate
Experiment: NCI tumour cell line growth inhibition, 48 h
measuredProperty: TGI

Field: example entries. Status: answers known.
compound	measuredProperty	endpointValue
COC1=CC(=O)c2c(cc(COP(=O)(N(C)CCBr)N(C)CCBr)n2C)C1=O	TGI	19.5 µM
Cn1c(O)c(N=NC(N)=S)c2ccccc21	TGI	> 100 µM
COc1cc(S(=O)(=O)N/N=C/c2cc(Br)c(O)c(OC)c2)c(OC)cc1NC(C)=O	TGI	> 100 µM

Query :: What measured TGI goes with N#C/C(=C\c1cccnc1)c1nc2ccccc2o1 ?
Result :: > 100 µM

* * *

Test system: UACC-257 melanoma
Experiment: NCI tumour cell line growth inhibition, 48 h
measuredProperty: GI50

molecule	measuredTarget	endpointValue
CC(C)=CCC/C(C)=C/[C@H]1OC(=O)CC12C[C@H](O)C=CC2=O (some centres undefined)	UACC-257 melanoma	1.2 µM
CN(C)CCNc1c2c(c(NCCN(C)C)c3c(CO)c[nH]c13)C(=O)c1ccccc1C2=O	UACC-257 melanoma	9.85 µM
O=C(O)c1cc2c(c3ccsc13)-c1ccccc1CC2	UACC-257 melanoma	53.4 µM
Cc1ccc(S(=O)(=O)c2ccsc2N)cc1	UACC-257 melanoma	> 100 µM
O=C(Nc1cccc([N+](=O)[O-])c1)c1cc2ccccc2cc1O	UACC-257 melanoma	0.881 µM
Cc1[nH]n(-c2ccccc2)c(=O)c1C(=O)c1ccccc1	UACC-257 melanoma	> 25 µM
CC1(C)N=C(N)N=C(N)N1c1ccc(OCCCCNC(=O)c2ccc(S(=O)(=O)F)cc2)c(Cl)c1	UACC-257 melanoma	6.36 µM
COc1cc(/C=C/c2cc(/C=C/c3ccc(O)c(OC)c3)[nH]c(=O)n2)ccc1O	UACC-257 melanoma	3.36 µM

Query :: What measured GI50 goes with Cc1cc(S(=O)(=O)Nc2nc3cc(-c4ccsc4)sc3c(=O)n2N)c(S)cc1Cl ?
Result :: > 100 µM
